Data origin, for the record: ChEMBL document CHEMBL1135409

Readings of log10(IC50) for the listed compounds
Molecular target: Endothelin-1 receptor (Rattus norvegicus, UniProt P26684)
Sequence (P26684 whole entry): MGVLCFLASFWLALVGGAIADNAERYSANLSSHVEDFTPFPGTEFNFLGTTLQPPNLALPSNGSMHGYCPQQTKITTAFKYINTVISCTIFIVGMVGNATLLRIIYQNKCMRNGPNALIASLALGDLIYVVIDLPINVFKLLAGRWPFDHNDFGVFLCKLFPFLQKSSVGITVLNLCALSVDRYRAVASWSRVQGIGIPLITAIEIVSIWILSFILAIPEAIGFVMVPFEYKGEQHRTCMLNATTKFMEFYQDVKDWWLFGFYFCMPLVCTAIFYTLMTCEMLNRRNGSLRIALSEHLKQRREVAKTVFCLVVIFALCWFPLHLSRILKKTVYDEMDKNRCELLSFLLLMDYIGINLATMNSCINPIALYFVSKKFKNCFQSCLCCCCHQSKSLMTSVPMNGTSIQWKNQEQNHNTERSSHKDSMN
Assay: Binding affinity for endothelin A receptor by inhibition of [125I]ET1 binding in rat aorta smooth muscle cells
In plain terms, each number is the log10 of measured IC50 in nM.

Solved entries (count: 5):
compound: CC(C)Oc1ccc2c(c1)C(c1ccc(C(C)C)cc1)=C(C(=O)O)C(c1ccc3c(c1)OCO3)O2 (centres undefined)
measurement target: Endothelin-1 receptor (Rattus norvegicus, UniProt P26684)
observed: 0.69

compound: CC(C)Oc1ccc2c(c1)C(c1ccc(O)cc1)=C(C(=O)O)C(c1ccc3c(c1)OCO3)O2 (centres undefined)
measurement target: Endothelin-1 receptor (Rattus norvegicus, UniProt P26684)
observed: 0.61

compound: COc1ccc(C2=C(C(N)=O)C(c3ccc4c(c3)OCO4)Oc3ccc(OC(C)C)cc32)cc1 (centres undefined)
measurement target: Endothelin-1 receptor (Rattus norvegicus, UniProt P26684)
observed: 2.80

compound: CCCCC1=C(C(N)=O)C(c2ccc3c(c2)OCO3)Oc2ccc(OC(C)C)cc21 (centres undefined)
measurement target: Endothelin-1 receptor (Rattus norvegicus, UniProt P26684)
observed: 2.61

compound: CC(C)Oc1ccc2c(c1)C(c1ccc(OCc3ccccc3)cc1)=C(C(=O)O)C(c1ccc3c(c1)OCO3)O2 (centres undefined)
measurement target: Endothelin-1 receptor (Rattus norvegicus, UniProt P26684)
observed: 0.80

Exam item: Would you kindly share the measured log10(IC50) for C=CCCCOC1=C(C(=O)O)C(c2ccc3c(c2)OCO3)Oc2ccc(OC(C)C)cc21 (centres undefined) ?
Marked response: -0.48

Exam item: Would you kindly share the measured log10(IC50) for CC(C)Oc1ccc2c(c1)C(c1ccc(F)cc1)=C(C(=O)O)C(c1ccc3c(c1)OCO3)O2 (centres undefined) ?
Marked response: 0.90

Exam item: Would you kindly share the measured log10(IC50) for CC(C)Oc1ccc2c(c1)C(c1ccc3c(c1)OCO3)=C(C(=O)O)C(c1ccc3c(c1)OCO3)O2 (centres undefined) ?
Marked response: 0.51

Exam item: Would you kindly share the measured log10(IC50) for CCCCC1=C(C(=O)O)[C@@H](c2ccc3c(c2)OCO3)Oc2ccc(OC(C)C)cc21 ?
Marked response: -0.38

Exam item: Would you kindly share the measured log10(IC50) for CCCCOc1ccc2c(c1)C(c1ccc3c(c1)OCO3)=C(C(=O)O)C(c1ccc(OC)c(OC)c1)O2 (centres undefined) ?
Marked response: 2.91

Exam item: Would you kindly share the measured log10(IC50) for COc1ccc(C2=C(C(=O)O)C(c3ccc4c(c3)OCO4)Oc3ccc(OC)cc32)cc1 (centres undefined) ?
Marked response: 1.87

Exam item: Would you kindly share the measured log10(IC50) for COc1ccc(C2=C(C(=O)NS(C)(=O)=O)C(c3ccc4c(c3)OCO4)Oc3ccc(OC(C)C)cc32)cc1 (centres undefined) ?
Marked response: 0.26

Exam item: Would you kindly share the measured log10(IC50) for COc1cccc(C2=C(C(=O)O)C(c3ccc4c(c3)OCO4)Oc3ccccc32)c1 (centres undefined) ?
Marked response: 2.85

Exam item: Would you kindly share the measured log10(IC50) for CCCCOC1=C(C(=O)O)C(c2ccc3c(c2)OCO3)Oc2ccc(OCCCC)cc21 (centres undefined) ?
Marked response: 0.48

Exam item: Would you kindly share the measured log10(IC50) for CCCCOc1ccc(C2Oc3ccc(OCCCC)cc3C(c3ccc4c(c3)OCO4)=C2C(=O)O)cc1 (centres undefined) ?
Marked response: 3.72
